tested on: RXF 393; experiment: NCI tumour cell line growth inhibition, 48 h
The source made the active and inactive calls. No stated cut-off is given here; in the data, active = GI50 up to about 1.1 µM and inactive = higher.
Reported Endpoint: GI50

[
  {
    "Molecule": "N#CCCN(CCC#N)c1ccc(/C=C2\\SC(=S)NC2=O)cc1",
    "Reported Endpoint": "GI50",
    "Meas Value": "37.9 µM (inactive)"
  },
  {
    "Molecule": "O=C(NNC(=O)c1cc2ccccc2[nH]1)c1cc2ccccc2[nH]1",
    "Reported Endpoint": "GI50",
    "Meas Value": "> 100 µM (inactive)"
  },
  {
    "Molecule": "c1csc(-c2cc(-c3ccsc3)c(-c3cccs3)s2)c1",
    "Reported Endpoint": "GI50",
    "Meas Value": "49.8 µM (inactive)"
  },
  {
    "Molecule": "C=C(C)[C@H]1CC(=O)[C@@]2(C)C[C@H]3O[C@]3(C)CC/C=C(\\C)CC[C@H]12",
    "Reported Endpoint": "GI50",
    "Meas Value": "33.8 µM (inactive)"
  },
  {
    "Molecule": "O=C1c2cccnc2C(=O)c2c1nc1ccccc1c2-c1cncc(-c2c3c(nc4ccccc24)C(=O)c2cccnc2C3=O)c1",
    "Reported Endpoint": "GI50",
    "Meas Value": "0.316 µM (active)"
  },
  {
    "Molecule": "COc1ccc(C(Cl)=C(c2ccc(OCCN(C)C)cc2)c2ccc(OCCN(C)C)cc2)cc1",
    "Reported Endpoint": "GI50",
    "Meas Value": "1.13 µM (inactive)"
  },
  {
    "Molecule": "O=C1CSC(c2cc3cc(Br)ccc3nc2Cl)N1c1ccc(F)c(Cl)c1 (stereo not given)",
    "Reported Endpoint": "GI50",
    "Meas Value": "> 50 µM (inactive)"
  },
  {
    "Molecule": "c1ccc2c(CCNC3=NCCO3)cccc2c1",
    "Reported Endpoint": "GI50",
    "Meas Value": "> 10 µM (inactive)"
  },
  {
    "Molecule": "Cn1cnc([N+](=O)[O-])c1Sc1nc2ccccc2[nH]1",
    "Reported Endpoint": "GI50",
    "Meas Value": "11.4 µM (inactive)"
  },
  {
    "Molecule": "C#C[C@]1(O)CCC2C3CCc4cc(Oc5nc(F)nc(-n6c(C)nc7cc8ccccc8cc76)n5)ccc4C3CCC21C (stereo not given in full)",
    "Reported Endpoint": "GI50",
    "Meas Value": "48.9 µM (inactive)"
  }
]

----------
test system: SR; test: NCI tumour cell line growth inhibition, 48 h
Active and inactive are the calls of the source. Rule as the data show it: active = GI50 up to about 1.1 µM and inactive = higher. Where a SMILES comes first, the peptide text is derived from it. [ ]: non-standard residue; d: D form. The star is where a group is joined. ξ: configuration not given here. Propanoyl(3-(4-MeO-Ph)) = COc1ccc(CCC(=O)*)cc1; Thr(3ξ) = CC(O)[C@H](N)C(=O)O; dNMeL = CN[C@H](CC(C)C)C(=O)O; OBn = c1ccc(CO*)cc1; ξLac = CC(O)C(=O)O

[
  {
    "Compound": "O=C(NNC(=O)c1cc2ccccc2[nH]1)c1cc2ccccc2[nH]1",
    "GI50": "66.5 µM (inactive)"
  },
  {
    "Compound": "N#Cc1c(N)c2c(c(-c3ccccc3)c1-c1ccccc1)C(=O)N(O)C2=O",
    "GI50": "62.7 µM (inactive)"
  },
  {
    "Compound": "CNS(=O)(=O)NN(C)S(=O)(=O)c1ccccc1",
    "GI50": "> 100 µM (inactive)"
  },
  {
    "Compound": "COc1ccc(/C=C/C(=O)c2cccc(C(=O)/C=C/c3ccc(OC)c(OC)c3)n2)cc1OC",
    "GI50": "2.91 µM (inactive)"
  },
  {
    "Compound": "CCOC(=O)C(CCC(N)=O)(CCC(=O)OC)C(=O)OCC",
    "GI50": "> 100 µM (inactive)"
  },
  {
    "Compound": "COc1ccc(NC(C(N)=O)c2cc3cc(Br)ccc3nc2Cl)cc1 (centres undefined)",
    "GI50": "15.6 µM (inactive)"
  },
  {
    "Compound": "COc1ccc(CCC(=O)OC(C)[C@H](NC(=O)[C@@H](CC(C)C)N(C)C(=O)[C@@H]2CCCN2C(=O)C(C)O)C(=O)OCc2ccccc2)cc1 (some centres undefined) (H-[ξLac]P[dNMeL][Thr(3ξ)](Propanoyl(3-(4-MeO-Ph)))-OBn)",
    "GI50": "34.4 µM (inactive)"
  },
  {
    "Compound": "CC(C)=CC(=O)CC(=O)C(=O)Nc1ccc(Cl)c(Cl)c1",
    "GI50": "> 100 µM (inactive)"
  },
  {
    "Compound": "[O-][n+]1c(-c2ccccc2)oc2ccccc21",
    "GI50": "> 100 µM (inactive)"
  }
]

From: ChEMBL document CHEMBL1201862
